- assay target: GSK3b (GST-full length GSK3b) (Homo sapiens (Human), UniProt P49841)
- Sequence (P49841 whole entry): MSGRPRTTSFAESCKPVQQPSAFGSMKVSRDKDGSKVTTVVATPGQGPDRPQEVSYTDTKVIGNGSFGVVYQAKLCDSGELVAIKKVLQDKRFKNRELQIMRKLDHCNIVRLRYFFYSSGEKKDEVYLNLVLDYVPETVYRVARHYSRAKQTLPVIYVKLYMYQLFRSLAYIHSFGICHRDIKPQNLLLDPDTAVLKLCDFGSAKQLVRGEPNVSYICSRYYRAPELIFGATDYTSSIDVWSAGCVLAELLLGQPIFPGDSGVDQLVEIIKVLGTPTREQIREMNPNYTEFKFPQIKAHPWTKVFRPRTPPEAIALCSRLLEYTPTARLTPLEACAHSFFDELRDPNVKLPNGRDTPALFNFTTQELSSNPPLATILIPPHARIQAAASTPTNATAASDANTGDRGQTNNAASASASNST
- measurement protocol: GSK3b TR-FRET kinase assay
- Format: biochemical
- experimental setup: read-out: GSK3-B (TR-FRET 1 mM ATP); GMean; IC50; 1 mM ATP; geometric mean
- Method: TR-FRET Assay: The assay was performed in a white, 384 well, low volume, flat bottom plate (Grenier). After a 30 minute preincubation in assay buffer with the indicated concentration of compound, the kinase activity was initiated by the addition of the substrates. […] After 60 min at room temperature the plate was read on Envision plate reader using Ex: 340 nm, Em: 615 nm and […]. The normalized 665/615 Signal ratio versus log compound concentration was analyzed by XLFIT to yield IC50 values.
pIC50: −log10 of the molar value.

molecule: CC[C@@]1(c2cccc(-c3c(C)nn(C)c3C)c2)C2=C(CC(C)(C)CC2=O)Nc2n[nH]cc21
pIC50: 6.00 to 7.00
//
molecule: COc1cncc(F)c1-c1cccc([C@@]2(C)C3=C(CC(C)(C)CC3=O)Nc3n[nH]c(CC(C)(C)C)c32)c1
pIC50: 5.30 to 6.00
//
molecule: CCCS(=O)(=O)c1cccc(C2(CC)C3=C(CC(C)(C)CC3=O)Nc3n[nH]cc32)c1 (centres unmarked)
pIC50: 6.00 to 7.00
//
molecule: CC[C@@]1(c2cccc(C(F)(F)F)c2)C2=C(CC3(CCCC3)CC2=O)Nc2n[nH]cc21
pIC50: 6.00 to 7.00
//
molecule: CCC1(c2cccc(-c3c(F)cncc3OC)c2)C2=C(Nc3n[nH]cc31)C(F)C(C)(C)CC2=O (centres unmarked) [Compound 948546]
pIC50: 6.00 to 7.00
//
molecule: CCC1(c2cccc(-c3ccnn3C)c2)C2=C(CC(C)(C)CC2=O)Nc2n[nH]c(C(F)(F)F)c21 (centres unmarked)
pIC50: 6.00 to 7.00
//
molecule: CCC1(c2cccc(-c3ccncc3)c2)C2=C(CC(C)(C)CC2=O)Nc2n[nH]cc21 (centres unmarked)
pIC50: 5.30 to 6.00
//
molecule: Cn1cc(-c2cccc(C3(C)C4=C(CC(C)(C)CC4=O)Nc4n[nH]c(CC(C)(C)C)c43)c2)cn1 (centres unmarked)
pIC50: 6.00 to 7.00
//
molecule: CCC1(c2cccc(-c3ccncc3F)c2)C2=C(CC(C)(C)CC2=O)Nc2n[nH]c(C(F)(F)F)c21 (centres unmarked)
pIC50: 6.00 to 7.00
//
molecule: CC[C@]1(c2cccc(N3CCCCC3)c2)C2=C(CC(C)(C)CC2=O)Nc2n[nH]c(C(F)(F)F)c21
pIC50: ≥ 7.00
//
molecule: CC[C@]1(c2cccc(-c3ccncc3C)c2)C2=C(CC3(CCC3)NC2=O)Nc2n[nH]cc21
pIC50: 5.30 to 6.00
//
molecule: CCC1(c2cccc(-c3cc(C)nnc3C)c2)C2=C(CC(C)(C)NC2=O)Nc2n[nH]c(C(F)(F)F)c21 (centres unmarked)
pIC50: 6.00 to 7.00
//
molecule: CC[C@]1(c2cccc(-c3ccncc3O)c2)C2=C(CC(C)(C)CC2=O)Nc2n[nH]cc21
pIC50: 5.30 to 6.00
//
molecule: CCC1(c2cccc(C3CCCC3)c2)C2=C(CC(C)(C)CC2=O)Nc2n[nH]cc21 (centres unmarked)
pIC50: 5.30 to 6.00
//
molecule: CCC1(c2cccc(N3CCCC3)c2)C2=C(CC(C)(C)CC2=O)Nc2n[nH]c(C(F)(F)F)c21 (centres unmarked)
pIC50: ≥ 7.00
//
molecule: CC(C)(C)Cc1[nH]nc2c1C1(CCN(c3ccccc3)CC1)C1=C(CC(C)(C)CC1=O)N2
pIC50: < 5.30
//
molecule: CCC1(c2cccc(-c3ccnc(C)c3)c2)C2=C(CC(C)(C)CC2=O)Nc2n[nH]c(C(F)(F)F)c21 (centres unmarked)
pIC50: < 5.30
//
molecule: CCC1(c2cccc(S(C)(=O)=O)c2)C2=C(CC(C)(C)NC2=O)Nc2n[nH]c(C)c21 (centres unmarked)
pIC50: 6.00 to 7.00
//
molecule: CC(C)(C)Cc1[nH]nc2c1C(C)(c1cccc(S(=O)(=O)C(F)(F)F)c1)C1=C(CC(C)(C)CC1=O)N2 (centres unmarked)
pIC50: 6.00 to 7.00
//
molecule: CCC1(c2cccc(-c3ccnc(C)c3)c2)C2=C(CC(C)(C)CC2=O)Nc2n[nH]c(C)c21 (centres unmarked)
pIC50: 5.30 to 6.00
//
molecule: CC(=O)N1CC2(C1)C[C@]1(CO2)C2=C(CC(C)(C)CC2=O)Nc2n[nH]cc21
pIC50: ≥ 7.00
//
molecule: CC[C@@]1(c2cccc(-c3c(F)cncc3OC)c2)C2=C(CC(C)(C)CC2=O)Nc2n[nH]cc21
pIC50: ≥ 7.00
//
molecule: CC(C)(C)Cc1[nH]nc2c1C(C)(c1cccc(S(=O)(=O)CC3CC3)c1)C1=C(CC(C)(C)NC1=O)N2 (centres unmarked)
pIC50: 6.00 to 7.00
